FYI, the data here is from paper PMC10386649.

target-desc: jack bean urease (Canavalia ensiformis, UniProt P07374)
Sequence (P07374 whole entry, looked up): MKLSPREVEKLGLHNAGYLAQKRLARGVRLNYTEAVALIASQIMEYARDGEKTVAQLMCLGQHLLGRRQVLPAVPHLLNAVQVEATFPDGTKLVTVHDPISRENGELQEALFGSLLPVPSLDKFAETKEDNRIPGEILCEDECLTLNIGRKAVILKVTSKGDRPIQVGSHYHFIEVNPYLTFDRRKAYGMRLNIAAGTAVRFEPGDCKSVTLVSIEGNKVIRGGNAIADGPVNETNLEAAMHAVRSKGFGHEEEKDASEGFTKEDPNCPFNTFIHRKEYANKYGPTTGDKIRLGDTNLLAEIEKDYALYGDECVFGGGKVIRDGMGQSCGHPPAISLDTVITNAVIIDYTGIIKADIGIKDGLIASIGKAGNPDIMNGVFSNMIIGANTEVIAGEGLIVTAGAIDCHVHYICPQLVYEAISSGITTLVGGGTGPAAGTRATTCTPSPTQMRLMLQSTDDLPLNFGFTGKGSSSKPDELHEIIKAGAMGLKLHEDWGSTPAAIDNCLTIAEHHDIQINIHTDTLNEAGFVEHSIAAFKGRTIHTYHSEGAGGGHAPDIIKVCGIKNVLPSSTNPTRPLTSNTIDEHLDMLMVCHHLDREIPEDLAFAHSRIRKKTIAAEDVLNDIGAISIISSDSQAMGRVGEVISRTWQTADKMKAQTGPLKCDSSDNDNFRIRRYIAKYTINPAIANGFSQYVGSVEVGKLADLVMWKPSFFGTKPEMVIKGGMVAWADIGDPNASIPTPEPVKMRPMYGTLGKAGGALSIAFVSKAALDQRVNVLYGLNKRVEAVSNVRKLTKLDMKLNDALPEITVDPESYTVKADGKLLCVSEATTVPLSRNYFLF
method-summary: biochemical
Assay type: biochemical
condition-summary: jack bean urease; urea substrate; pH 6.8; 37 °C; mean ± SEM; read-out: IC50 (µM); Mean ± SEM
measurement-type: IC50
Record the result as number plus unit.

What does the data say about its IC50? Entry: NC(N)=S [Thiourea, reference compound]
22.6 µM

====

Measured melting point values are reported for all entries that follow.

compound="CC(C)Cc1ccc(C(C)C(=O)Nc2ccc(S(=O)(=O)Nc3nccs3)cc2)cc1 (stereo not shown) [Conjugate 6]" measurement_type="melting point" measured_value="184 to 185 °C"

What does the data say about its melting point? Entry: CC(C(=O)Nc1ccc(S(N)(=O)=O)cc1)c1ccc(-c2ccccc2)c(F)c1 (stereo not shown) [Conjugate 12]
147 to 150 °C

What does the data say about its melting point? Entry: CC(=O)NS(=O)(=O)c1ccc(NC(=O)C(C)c2ccc(-c3ccccc3)c(F)c2)cc1 (stereo not shown) [Conjugate 18]
187 to 190 °C

What does the data say about its melting point? Entry: CC(C)Cc1ccc(C(C)C(=O)Nc2ccc(S(N)(=O)=O)cc2)cc1 (stereo not shown) [Conjugate 4]
147 to 150 °C
